System: MS2 coat protein
Test: apparent Kd, MS2 coat protein; higher = weaker binding; RNA-MaP array; tryptophan 2.4 mM where present
Settings: designed as: OFF switch for tryptophan; no ligand
Measured apparent Kd of individual entries
Kindly provide the numeric value in nM only, without the unit symbol.

AAUGUAUUCCACAUGAGGAUCACCCAUGUGCGAGGACCGGUACGGCCGCCACUCGGUGUUGGGAUCAGUUCUGAAUACAUUAAUG 15.9
CUCAUCCACGCGGCCGCCACUAUAUUGUGGUGCGAAUGUGUCGUAAUACAUGAGGAUCACCCAUGUAGGACCGGGCGUGGAUGAG 12.6
AAUUCCGGGUCGGCCGCCACUGAUAUGGCGAGUCCUCGAACUUACAUGAGGAUCACCCAUGUAAACAGGACCGGGACCGCAUGGG 18.5
AGCAACAAGUCGGCCGCCACUCUUUUUACAUGAGGAUCACCCAUGUUUAUAUCAUGGUCUUAAUAGAGGACCGGGACAGUUGCAU 37.2

// below: apparent Kd requested for another sequence
Request: Name the recorded apparent Kd for AAUGUAUGGCACAUGAGGAUCACCCAUGUGCGAGGACCGGUACGGCCGCCACUCGGUCCUGGGAUCUUAUUACUAUACAUUAAUG .
Result: 11.6

###

Measured apparent Kd of individual entries
Tested on: MS2 coat protein
Assay: apparent Kd, MS2 coat protein; higher = weaker binding; RNA-MaP array; FMN 200 µM where present
Conditions: designed as: OFF switch for flavin mononucleotide; no ligand
Kindly provide the numeric value in nM only, without the unit symbol.

Here is how some sequences turned out for apparent Kd.
CCAGGCAGUGUGAGGAUAUGCUGGUGCUUGCAUCAGCAGAAGGCACAUGAGGAUCACCCAUGUGAAGAGCUUGG 27.6
UUAAGUCAUGUAGGAUAUCCGAGGCGAAGCGUUGGAGAAGGACAUGAGGAUCACCCAUGUUCUAGCGUCUGAGUACAGAUGCAA 22.7
UGUGUGUUUGUGAGGAUAUGCGCGCGGAAAUGUGUGUAGAAGGCACAUGAGGAUCACCCAUGUAAGGGCGCGCG 596

Request: Name the recorded apparent Kd for CUCGUGUUAGGAUAUCGUGGCUGGGCUGGGACGUCCGAUCGCGAGAAGGGACAUGAGGAUCACCCAUGUAAAAC .
Result: 36.7

Request: Name the recorded apparent Kd for AAUAUAAAGAGCUGGUACUCAAUAACAUGAGGAUCACCCAUGUAGGAUAUCAGCACGAUAAGUGCUGAGAAGGACAUCCAGCUC .
Result: 16.6

Request: Name the recorded apparent Kd for UGACCCUGGAAGAGUGUUUAGACAUGAGGAUCACCCAUGUCUGAGGAUAUGCGGCAUCAAUAACAGCAGAAGGCAGACUUGGGU .
Result: 239

Request: Name the recorded apparent Kd for CGCCCGGGAGGAUAUCCAAUAUAUGACAUGAGGAUCACCCAUGUUUCCACUCGUACCUCCGGAGAAGGCCCGGCGC .
Result: 22.2

Request: Name the recorded apparent Kd for CGCUAGUCAGGAUAUACGAACAUGUCACAAGACGUGAAGGGACAUGAGGAUCACCCAUGUAGAAGGGACUAGCA .
Result: 44.1

Request: Name the recorded apparent Kd for GUCAGCUCGUGAGGAUAUACAACACUGCUUCGGCAGUGUAUUAAGAUCACAUGAGGAUCACCCAUGUAGAAGGAACGAGCUGAU .
Result: 7.52

Request: Name the recorded apparent Kd for GCCGUAAAUGUGAGGAUAUACCUAUGGAAACAUAGGUAGAAGGCACAUGAGGAUCACCCAUGUCCUUAAUCGGC .
Result: 447

Request: Name the recorded apparent Kd for AAUAACAGAGGAUAUACUAUUUUAUGUGUUUAUUGUUUUGAACAUGAGGAUCACCCAUGUAGAAGGCUGAUUGA .
Result: 47.8

Request: Name the recorded apparent Kd for UAUCCGUCAGUAGGAUAUAUGCCGAGUCAUUGCAUAGAAGGACUGACAUGAGGAUCACCCAUGUCAGAUUGCGCUGGUCUUCCG .
Result: 6.24

Request: Name the recorded apparent Kd for ACGUAUCGUGUAGGAUAUGACACAGGAAACUGGUCAGAAGGACAUGAGGAUCACCCAUGUAGAGUAUGUUAGGAUGACGUAUGC .
Result: 43

Request: Name the recorded apparent Kd for GCUCUGCGAGGAUAUACAUGAGGAUCACCCAUGUGCGAGUUACUUGUGAGGUCGGUUGGUAGAAGGCGCGGAGG .
Result: 106

Request: Name the recorded apparent Kd for AGGGUGUCGCUCAAUAACAUGAGGAUCACCCAUGUGCAUUAGAGAAGGGACCCGGGCGCGUGGAGUCAGGAUAUCUAUCUGCCA .
Result: 34.4

Request: Name the recorded apparent Kd for UCGAGGUCAGGAUAUACAUGAGGAUCACCCAUGUGGAAGUAAGGUAGGAGAAGAGUAGGUAGAAGGGACGAGAG .
Result: 42.6

###

Tested on: MS2 coat protein
Test: apparent Kd, MS2 coat protein; higher = weaker binding; RNA-MaP array; FMN 200 µM where present
Conditions: designed as: OFF switch for flavin mononucleotide; no ligand
EXPERIMENTAL ENDPOINT: apparent Kd (nM)
Kindly provide the numeric value in nM only, without the unit symbol.

CGUUAAUCCUAGGAUAUGCUAGACGAAAGUCUAGCAGAAGGAGGAACAUGAGGAUCACCCAUGUGUCCUAAACG 16.8
CGAGUUUUUGAGAAGGCAUAUUAUAUUAUACCACAUGUUUACAUGAGGAUCACCCAUGUUUCCUAUGAGGAUAUCAGAAUAUCG 11.8
CACGCAUGUGGAGGAUAUGCAGUUAACAUAAGCGCAGAAGGCCACAUGAGGAUCACCCAUGUCCAGCAUUAGCUGAUGUUGAUC 385
GUGUACGGAGGAUAUAUGUGGGCAGGCUGACCUGCAGCUUCACAUGAGGAUCACCCAUGUAGAAGGCUGUGCAC 22.2
UGUCGGAGCAGAGGAUAUUACAUGAGGAUCACCCAUGUAUGAACCAUUAGCUGGAAACAGCAAUGUAAGAAGGCUGCUCCGACA 5.37
UGUCGGAGCAGAGGAUAUUACAUGAGGAUCACCCAUGUAUGAACCAAUAGCUGGAAAUAGCAAUGUAAGAAGGCUGCUCCGACA 15.8

Request: Name the recorded apparent Kd for GCCUGCCGUGGCACGGUAGCACCGGAGGAUAUCCGCGUCGGUCAUGACAUGAGGAUCACCCAUGUGGAGAAGGCUGGUUUGUCC .
Result: 10.8

###

Test system: MS2 coat protein
Assay: apparent Kd, MS2 coat protein; higher = weaker binding; RNA-MaP array; FMN 200 µM where present
Settings: designed as: ON switch for flavin mononucleotide; no ligand
Classification field: enter fulfilled for apparent Kd values not below 40 nM, not fulfilled for values below it.

Below, 8 sequences whose answers are already recorded.
GGAGCUCAGAUUAACAUGAGGAUCACCCAUGUCUUUUGACAUGAGGAUAUGGAUCCUAAUUGGAUCCAGAAGGCAUGGAGCUCC fulfilled
AUUAUUUAUAGUUAUUGGUAAUUGACAGAAGGUGAAAGUGUCACAUGAGGAUCACCCAUGUUCUUCAAGGAUAUGUUGGUUUAC not fulfilled
GCCAACUUAUGAGGAUAUGGCACCUUAUUGGUGCCAGAAGGCAUGUCAAUUGACAUGAGGAUCACCCAUGUAUUAUAGUUGGCA fulfilled
AUGGAUAUCACAGGAUAUGAUAUGGAUACCAUAUCAGAAGGGUGAUCCAUCCUCUGUAAAUACAUGAGGAUCACCCAUGUGUCC not fulfilled
ACAUGAGGAUCACCCAUGUGGACAUAGGAUAUUGGUGAUCAGGCGUGUUAUACAGGAUAGGUCUGCGAGAAGGGUGUGCGUUGC fulfilled
GUGGUCAGACAUGAGGAUCACCCAUGUGGAAUAAAUAAGGAAUAGGAUAUCGAAUAUAGGAUAUACGAGAAGGGUUGGUUGGUG fulfilled
AAAAGACAUGAGGAUCACCCAUGUAAAGACGUAGGAGGAUAUGUCUUGAAAAAAGACUUGACAGAAGGCCUGUGUC not fulfilled
GUGCACACUCGAGGAUAUCGGAGAGUUCUCCUUCGAGAAGGCGAUUCGUGCCGUGUUAUUCUGGACAUGAGGAUCACCCAUGUG fulfilled

Request: Check this sequence for apparent Kd at or above 40 nM: GGACGUCUCAUUAACAUGAGGAUCACCCAUGUCGAAAGACAUGAGGAUAUGGAUCCUAAUUGGAUCCAGAAGGCAUGGACGUCC
Result: fulfilled

###

System: MS2 coat protein
Assay: apparent Kd, MS2 coat protein; higher = weaker binding; RNA-MaP array; theophylline 2 mM where present
Conditions: designed as: ON switch for theophylline; no ligand
EXPERIMENTAL ENDPOINT: apparent Kd (µM)
Kindly provide the numeric value in µM only, without the unit symbol.

Here is how some sequences turned out for apparent Kd.
UGUAUGUGAUUUGAUACCAGUUCUGCUGGUAAAACAUGAGGAUCACCCAUGUUACUUUGGGACCCUUGGCAGCAAAUCGCAUACU 0.201
UGUAUGUGAUCUGAUACCAGUCCAACUGGUAAAACAUGAGGAUCACCCAUGUAAAAUUGGGACCCUUGGCAGCAGAUCGCAUACU 0.534
GGUGGCGUGACGGAUACCAGCCACCACCGAUAGACCACAUGAGGAUCACCCAUGUUGGGUGGCCCUUGGCAGCUGUCGUGCGGCG 0.23
AUCGUACCUGAGGAUACCAGCAUGUGAUCAUAACAUGAGGAUCACCCAUGUAAUCAGUGAUGCCCUUGGCAGCUUGGUCGAUACA 0.0542
AUUAAUAGUUGUGAUACCAGACGAACAUGAGGAUCACCCAUGUAACUUUUAGGUGUUGUAGUCCCUUGGCAGCACUAUGUAGUUA 0.04
AUACCUAAUGUUACAUUUACCUUAUCAGAUACCAGACUUUACGUUGUCCCUUGGCAGCUGUAUCACAUGAGGAUCACCCAUGUUG 0.016

// below: apparent Kd requested for another sequence
Request: Name the recorded apparent Kd for GGUGGGACUUGUGAUACCAGCCUAAUUCUAAACGAAUUGCACAUGAGGAUCACCCAUGUCGGCCCUUGGCAGCAUGAGUAUUUAU .
Result: 0.114
